biological target: BTK (Homo sapiens (Human)); assay: Mass spectrometry for BTK (intact protein); type: binding; conditions: 1 hr, 10× fold excess of compound
Sequence (Q06187 whole entry): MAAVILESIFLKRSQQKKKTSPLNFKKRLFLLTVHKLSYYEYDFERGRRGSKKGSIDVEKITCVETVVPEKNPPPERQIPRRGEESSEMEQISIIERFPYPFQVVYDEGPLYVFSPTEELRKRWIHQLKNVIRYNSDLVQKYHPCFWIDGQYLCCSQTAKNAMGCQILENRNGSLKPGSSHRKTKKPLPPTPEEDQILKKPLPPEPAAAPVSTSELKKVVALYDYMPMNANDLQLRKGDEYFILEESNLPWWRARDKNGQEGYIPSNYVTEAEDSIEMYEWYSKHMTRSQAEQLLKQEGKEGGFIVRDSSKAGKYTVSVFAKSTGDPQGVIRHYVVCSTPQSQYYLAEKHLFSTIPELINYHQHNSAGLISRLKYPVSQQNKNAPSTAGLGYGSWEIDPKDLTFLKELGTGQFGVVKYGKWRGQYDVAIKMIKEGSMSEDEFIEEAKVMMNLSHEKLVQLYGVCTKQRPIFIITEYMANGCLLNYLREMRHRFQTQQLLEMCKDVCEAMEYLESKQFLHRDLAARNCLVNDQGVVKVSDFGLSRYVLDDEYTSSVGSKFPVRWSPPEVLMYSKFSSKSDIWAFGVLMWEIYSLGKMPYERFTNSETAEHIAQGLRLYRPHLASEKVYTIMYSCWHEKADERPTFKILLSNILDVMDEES
result_type: modification of BTK by mass spectrometry

// below: answered compounds
C=CC(=O)Nc1cccc(Nc2nc(Nc3ccc(OCCOC)cc3)ncc2F)c1 [Compound I-182] ... completely modify
C=CC(=O)N1CCOc2ccc(Nc3ncc(F)c(Nc4cccc(Cl)c4)n3)cc21 [Compound I-149] ... completely modify
CC(C)=CC(=O)c1cccc(Nc2nc(Nc3cccc(OCCN(C)C)c3)ncc2F)c1 [Compound I-207] ... completely modify
C=CC(=O)N(C)Cc1ccc(Nc2nc(Nc3ccccc3)ncc2C)cc1 [Compound I-219] ... completely modify

I am curious: what modification of BTK by mass spectrometry value has been reported for C=CC(=O)Nc1cccc(Nc2nc(Nc3cccc(OC(F)(F)F)c3)ncc2F)c1 [Compound I-244] ? completely modify
